Assay Endpoint: melting point

Consider the worked cases shown below.
>>> df
                                   compound       reported_result
0  CCCCCCC1(c2cc(O)c([C@@H]3CC(=O)C4CC3C4(C)C)c(O)c2)SCCS1 (stereo partly shown) [Compound 2c]  160 to 161 °C (dec.)
1  CCCCC=CC1(c2cc(O)c([C@@H]3CC(=O)[C@@H]4C[C@H]3C4(C)C)c(O)c2)CCCC1 [Compound 2b]         167 to 168 °C
2  CCCCCCC1(c2cc(O)c([C@@H]3CC(=O)[C@@H]4C[C@H]3C4(C)C)c(O)c2)CCCC1 [Compound 2a]         187 to 188 °C

Kindly review the next compound as well.
Prompt: Value lookup for melting point; key = CCCCCCC1(c2cc(O)c3c(c2)OC(C)(C)[C@@H]2CCC(=O)C[C@@H]32)SCCS1 (single isomer, unassigned) [Compound 4c]
Completion: 62 to 64 °C (dec.)
